Method Summary: in vitro
Experimental Conditions: rat, gh3-tre-luc cells, AC50 (uM) modified / 1000, Tox21_110001=Tox21_201755; viability, 1 nM T3 present, 24 h
Reported Metric: CC50 at 24 h (µM)
Respond with the bare value in µM.

Please report CC50 at 24 h for the following compound: Cc1cccc(N=Nc2ccc(N(C)C)cc2)c1 [3'-Methyl-4-dimethylaminoazobenzene]
72.8

====

Method Summary: in vitro
Experimental Conditions: rat, gh3-tre-luc cells, AC50 (uM) modified / 1000, Tox21_110001=Tox21_200104; viability, 1 nM T3 present, 24 h
Reported Metric: CC50 at 24 h (µM)
# value in µM; strip the unit string

Please supply the value of reported CC50 at 24 h for the item `C[C@H]1CC[C@@H]2[C@@H](C)[C@H]3[C@H](C[C@H]4[C@@H]5CC=C6C[C@@H](O[C@@H]7O[C@H](CO)[C@H](O)[C@H](O[C@@H]8O[C@H](CO)[C@@H](O)[C@H](O)[C@H]8O)[C@H]7O[C@@H]7O[C@@H](C)[C@H](O)[C@@H](O)[C@H]7O)CC[C@]6(C)[C@H]5CC[C@]34C)N2C1`
16.1

====

Method Summary: in vitro
Experimental Conditions: rat, gh3-tre-luc cells, AC50 (uM) modified / 1000, Tox21_110001=Tox21_112896; viability, 1 nM T3 present, 24 h
Where a name gives a salt, the structure may show the parent alone.
Reported Metric: CC50 at 24 h

Quickly give me recorded CC50 at 24 h for CC(Cc1ccccc1)NCCn1cnc2c1c(=O)n(C)c(=O)n2C (stereo not shown) [Fenethylline hydrochloride]
> 90 µM

====

Method Summary: in vitro
Experimental Conditions: rat, gh3-tre-luc cells, AC50 (uM) modified / 1000, Tox21_110001=Tox21_302509; viability, 1 nM T3 present, 24 h
Reported Metric: CC50 at 24 h

Tell me measured CC50 at 24 h for NC(=O)O [Ammonium carbamate] please.
> 90 µM

====

Method Summary: in vitro
Experimental Conditions: rat, gh3-tre-luc cells, AC50 (uM) modified / 1000
Assign CC50 at 24 h to each entry below.

Tell me measured CC50 at 24 h for NCCS(=O)(=O)O [l-Taurine] please.
29.5 µM

Answer with the recorded CC50 at 24 h for the compound listed here: CCCc1c2oc(C(=O)O)cc(=O)c2cc2c(=O)cc(C(=O)O)n(CC)c12 [Nedocromil]
> 50 µM

Indicate the recorded CC50 at 24 h value for this compound: Cc1cc2nc3c(=O)[nH]c(=O)nc-3n(C[C@H](O)[C@H](O)[C@H](O)CO)c2cc1C [Riboflavin]
> 90 µM

Report CC50 at 24 h, nothing else, for this compound: CC(CN1c2ccccc2Sc2ccc(S(=O)(=O)N(C)C)cc21)N(C)C (stereo not drawn) [Fonazine]
21.4 µM

Using the record for CCC[N+]1(C)CCCCC1 [1-Methyl-1-propylpiperidinium bromide] , state its measured CC50 at 24 h.
> 90 µM

Consider the compound O=C(O)c1cccnc1C(=O)O [Quinolinic acid] . State its measured CC50 at 24 h.
> 90 µM

Retrieve CC50 at 24 h measured for CC(C)CCCCCCCOC(=O)c1ccccc1C(=O)OCCCCCCCC(C)C [Diisodecyl phthalate] and print it.
> 90 µM

Find the measured CC50 at 24 h of CCCCCC=CCC(=O)OC [Methyl 3-nonenoate] and report it.
> 90 µM

Provide only the value of recorded CC50 at 24 h for `CN(C)Cc1cc(C(C)(C)C)c(O)c(C(C)(C)C)c1`
50.7 µM

Provide only the value of recorded CC50 at 24 h for C[C@@H]1CC[C@H]2C(C)(C)C3CC12CC[C@@]3(C)O (single isomer, unassigned; (+)) [(+)-Cedrol]
71.6 µM

Using the record for CCCC/C=C/CCCCO [(E)-5-Decen-1-ol] , state its measured CC50 at 24 h.
> 90 µM

Note down CC50 at 24 h recorded for O=C1NC(=O)[C@H]2[C@@H]1[C@@H]1C=C[C@H]2C1 [Noreximide]
> 50 µM

Using known records, supply CC50 at 24 h for Clc1ccc(Sc2cc(Cl)c(Cl)cc2Cl)cc1 [Tetrasul]
> 90 µM

// Input: CC/C=C\CCCCCO [(6Z)-Non-6-en-1-ol] . Output its CC50 at 24 h only.
> 90 µM

Determine its reported CC50 at 24 h: CCCCCCCCCC(=O)OC [Methyl decanoate]
> 90 µM

Answer with reported CC50 at 24 h of CO[Si](CCCS)(OC)OC [3-Mercaptopropyltrimethoxysilane]
> 90 µM

Tell me measured CC50 at 24 h for CC(=O)OCC1=C(C(=O)O)N2C(=O)[C@@H](NC(=O)Cc3ccccc3)[C@H]2SC1 [Cefaloram] please.
> 50 µM

Please give the documented CC50 at 24 h of Cc1ncc([N+](=O)[O-])n1CC(C)O (stereo not drawn) [Secnidazole]
> 50 µM

Hello, please tell me recorded CC50 at 24 h for this one: `CCN(CC)/[N+]([O-])=N/O`
> 50 µM

Give recorded CC50 at 24 h. [2H]C([2H])([2H])[C@H](N)Cc1ccccc1 [D-Amphetamine-d3 hemisulfate]
> 50 µM

Determine its reported CC50 at 24 h: N#Cc1c(Cl)cccc1Cl [Dichlobenil]
> 90 µM

====

Method Summary: in vitro
Experimental Conditions: rat, gh3-tre-luc cells, AC50 (uM) modified / 1000, Tox21_110001=Tox21_300616; viability, 1 nM T3 present, 24 h
Reported Metric: CC50 at 24 h

Complete the entry with CC50 at 24 h for `O=C(O)C(F)(F)C(F)(F)C(F)(F)C(F)(F)C(F)(F)C(F)(F)F`
> 90 µM

====

Method Summary: in vitro
Experimental Conditions: rat, gh3-tre-luc cells, AC50 (uM) modified / 1000, Tox21_110001=Tox21_111293; viability, 1 nM T3 present, 24 h
Reported Metric: CC50 at 24 h

Output measured CC50 at 24 h for this item: Clc1ccc(Cl)cc1 [1,4-Dichlorobenzene]
> 50 µM

====

Method Summary: in vitro
Experimental Conditions: rat, gh3-tre-luc cells, AC50 (uM) modified / 1000, Tox21_110001=Tox21_113486; viability, 1 nM T3 present, 24 h
Reported Metric: CC50 at 24 h (µM)
# number only, unit µM dropped from output

Assign CC50 at 24 h to the following record: CCCCCc1cc(O)c2c(c1)OC(C)(C)c1ccc(C)cc1-2 [Cannabinol]
13.4

====

Method Summary: in vitro
Experimental Conditions: rat, gh3-tre-luc cells, AC50 (uM) modified / 1000
Structures can show the parent of a compound that is named as a salt.
Reported Metric: CC50 at 24 h

Report measured CC50 at 24 h; entry is `O=C1C(c2[nH]c3ccccc3c2O)=Nc2ccccc21`
> 90 µM

Quote CC50 at 24 h reported for `O[C@@H]([C@H](O)[C@H](O)CBr)[C@H](O)CBr` please.
> 90 µM

Consider the molecule `Clc1ccc(C(c2ccc(Cl)cc2)C(Cl)Cl)cc1` and give its recorded CC50 at 24 h.
27.9 µM

Read the entry CCOC(=O)c1cnc2c(cnn2CC)c1NN=C(C)C [Etazolate hydrochloride] and write its reported CC50 at 24 h.
> 50 µM

Tell us which CC50 at 24 h value is on record for `Nc1ccc([N+](=O)[O-])c(N)c1`
64.4 µM

Return the recorded CC50 at 24 h value; entry: `Cc1ccccc1CNc1ncnc2c1ncn2[C@@H]1O[C@H](CO)[C@@H](O)[C@H]1O`
> 50 µM

Return reported CC50 at 24 h. Input molecule: COC(=O)c1ccccc1C(=O)OC [Dimethyl phthalate]
> 50 µM

Note CC50 at 24 h for the molecule shown: CC(=O)SCC(Cc1ccccc1)C(=O)NCC(=O)OCc1ccccc1 (stereo not shown)
> 20 µM

Answer with the recorded CC50 at 24 h for the molecule listed here: CCCCOc1ccc(OCCCN2CCOCC2)cc1 [Pramoxine hydrochloride]
> 20 µM

Provide one value: measured CC50 at 24 h of `CCN(CC)C(=O)SCc1ccc(Cl)cc1`
> 90 µM

Query CC50 at 24 h for O=C(NCNC(=O)NC1C(=O)NC(=O)N1CO)NC1C(=O)NC(=O)N1CO (stereo not shown)
> 90 µM

Answer with the recorded CC50 at 24 h of `C=CC[C@]1(O)CC[C@H]2[C@@H]3CCC4=CCCC[C@@H]4[C@H]3CC[C@@]21C` only.
41.6 µM

Read the entry O=C(CCCN1CCC(O)(c2cccc(C(F)(F)F)c2)CC1)c1ccc(F)cc1 [Trifluperidol hydrochloride] and write its reported CC50 at 24 h.
24 µM

Identify CC50 at 24 h associated with the molecule FC(F)(F)c1ccccc1Cl [2-Chlorobenzotrifluoride]
> 90 µM

Please supply the value of reported CC50 at 24 h for the item `COc1c(Cl)c(Cl)c(Cl)c(Cl)c1Cl`
> 90 µM

Answer with reported CC50 at 24 h of CCCCCC/C=C/CCCCCCCC(=O)O [(E)-Hexadec-9-enoic acid]
> 90 µM

Return the recorded CC50 at 24 h value; entry: `CC(C)CCCCCOC(=O)CCCOc1ccc(Cl)cc1Cl`
> 90 µM

Please indicate CC50 at 24 h recorded for C=C[Si](OC(C)=O)(OC(C)=O)OC(C)=O [Ethenylsilanetriyl triacetate]
> 90 µM

Please give the documented CC50 at 24 h of `CSC(=O)c1c(C(F)F)nc(C(F)(F)F)c(C(=O)SC)c1CC(C)C`
57.6 µM
